target-or-system: murine CCR2 (Mus musculus)
Construct: host or cells: U2OS β-arrestin cell line
Sequence (P51683 whole entry): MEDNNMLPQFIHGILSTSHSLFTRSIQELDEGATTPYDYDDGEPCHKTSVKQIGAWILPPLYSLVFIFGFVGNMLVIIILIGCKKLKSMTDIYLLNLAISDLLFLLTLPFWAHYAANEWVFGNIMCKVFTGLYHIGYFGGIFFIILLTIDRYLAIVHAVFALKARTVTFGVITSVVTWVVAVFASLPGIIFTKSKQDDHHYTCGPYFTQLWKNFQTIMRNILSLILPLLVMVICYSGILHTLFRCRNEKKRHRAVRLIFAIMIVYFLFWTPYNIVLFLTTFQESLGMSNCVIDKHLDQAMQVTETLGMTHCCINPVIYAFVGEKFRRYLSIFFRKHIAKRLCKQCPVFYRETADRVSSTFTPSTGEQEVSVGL
experimental-details: Functional β-arrestin recruiting test with murine MCP-1 (B-2b)
Assay type: cell-based
condition-summary: U2OS β-arrestin cell line transfected with murine CCR2; agonist murine MCP-1; in some cases means of several determinations
pIC50: −log10 of the molar value.
compounds and their reported pIC50
property-label: pIC50

O=c1[nH]c(-c2ccccn2)nc(C(F)(F)F)c1Oc1ccc(F)c(Cl)c1 : 5.98
CC(C)(C)Oc1ccnc(-c2nc(C(F)(F)F)c(Oc3ccc(Cl)c(C(F)(F)F)c3)c(=O)[nH]2)c1 : 5.71
O=c1[nH]c(-c2ncccc2Br)nc(C(F)(F)F)c1Oc1ccc(Cl)c(C(F)(F)F)c1 : 8.08
COc1ccnc(-c2nc(C(F)(F)F)c(Oc3ccc(Cl)c(C(F)(F)F)c3)c(=O)[nH]2)c1 : 6.08
